Reference source: ChEMBL document CHEMBL3785005

# experiment: Cytotoxicity against human DU145 cells assessed as cell viability after 48 hrs by MTT assay
# Type: functional, cell-based
# condition set: DU-145, 48 h
measured attribute: pIC50
FYI, pIC50 means -log10 of a concentration in mol per litre.

Look up and state reported pIC50 for `CC(C)=CCC/C(C)=C/CC/C(C)=C/CC[C@@H]1[C@@]2(C)C/C(=C\c3ccc(OCc4cn(-c5ccc(Cl)cc5)nn4)cc3)C(=O)C(C)(C)[C@@H]2CC[C@@]1(C)O`
4.10

Specify reported pIC50 for the compound shown: `CC(C)=CCC/C(C)=C/CC/C(C)=C/CC[C@@H]1[C@@]2(C)C/C(=C\c3ccc(OCc4cn(-c5cccc(Br)c5)nn4)cc3)C(=O)C(C)(C)[C@@H]2CC[C@@]1(C)O`
4.39

Report measured pIC50; entry is `CC(C)=CCC/C(C)=C/CC/C(C)=C/CC[C@@H]1[C@@]2(C)CC/C(=N\OCc3cn(-c4ccc(F)c(F)c4F)nn3)C(C)(C)[C@@H]2CC[C@@]1(C)O`
4.52
